Values from ChEMBL document CHEMBL5136971

For each record, write down the corresponding IC50.
Assay: Inhibition of Escherichia coli HPPK
Dear colleague, please return just the value in nM, with no unit written.

For the molecule `CC1(C)Nc2nc(N)[nH]c(=O)c2N=C1C(=O)NCCN1CC[C@@H](SC[C@H]2O[C@@H](n3cnc4c(N)ncnc43)[C@H](O)[C@@H]2O)C[C@@H]1C(=O)O` , what IC50 is on record?
380

Queued: `CC1(C)Nc2nc(N)[nH]c(=O)c2N=C1C(=O)NCCN1CCC(SC[C@H]2O[C@@H](n3cnc4c(N)ncnc43)[C@H](O)[C@@H]2O)CC1`
3200

###

Test: Inhibition of Salmonella enterica HPPK incubated for 20 mins in presence of ATP by Kinase Glo luminescence assay
metric: pIC50
Quick note: pIC50 values are minus log10 of concentrations in mol/L.

Any idea what pIC50 was measured for `O=C(NCc1n[nH]c(=O)c2ccccc12)c1cccc(Cl)c1` ?
4.98
